Molecular target: hERG channel (Homo sapiens, UniProt Q12809)
Construct: expressed in transfected cells; host or cells: CHO (hERG-CHO), under Geneticin selection
Sequence (Q12809 whole entry): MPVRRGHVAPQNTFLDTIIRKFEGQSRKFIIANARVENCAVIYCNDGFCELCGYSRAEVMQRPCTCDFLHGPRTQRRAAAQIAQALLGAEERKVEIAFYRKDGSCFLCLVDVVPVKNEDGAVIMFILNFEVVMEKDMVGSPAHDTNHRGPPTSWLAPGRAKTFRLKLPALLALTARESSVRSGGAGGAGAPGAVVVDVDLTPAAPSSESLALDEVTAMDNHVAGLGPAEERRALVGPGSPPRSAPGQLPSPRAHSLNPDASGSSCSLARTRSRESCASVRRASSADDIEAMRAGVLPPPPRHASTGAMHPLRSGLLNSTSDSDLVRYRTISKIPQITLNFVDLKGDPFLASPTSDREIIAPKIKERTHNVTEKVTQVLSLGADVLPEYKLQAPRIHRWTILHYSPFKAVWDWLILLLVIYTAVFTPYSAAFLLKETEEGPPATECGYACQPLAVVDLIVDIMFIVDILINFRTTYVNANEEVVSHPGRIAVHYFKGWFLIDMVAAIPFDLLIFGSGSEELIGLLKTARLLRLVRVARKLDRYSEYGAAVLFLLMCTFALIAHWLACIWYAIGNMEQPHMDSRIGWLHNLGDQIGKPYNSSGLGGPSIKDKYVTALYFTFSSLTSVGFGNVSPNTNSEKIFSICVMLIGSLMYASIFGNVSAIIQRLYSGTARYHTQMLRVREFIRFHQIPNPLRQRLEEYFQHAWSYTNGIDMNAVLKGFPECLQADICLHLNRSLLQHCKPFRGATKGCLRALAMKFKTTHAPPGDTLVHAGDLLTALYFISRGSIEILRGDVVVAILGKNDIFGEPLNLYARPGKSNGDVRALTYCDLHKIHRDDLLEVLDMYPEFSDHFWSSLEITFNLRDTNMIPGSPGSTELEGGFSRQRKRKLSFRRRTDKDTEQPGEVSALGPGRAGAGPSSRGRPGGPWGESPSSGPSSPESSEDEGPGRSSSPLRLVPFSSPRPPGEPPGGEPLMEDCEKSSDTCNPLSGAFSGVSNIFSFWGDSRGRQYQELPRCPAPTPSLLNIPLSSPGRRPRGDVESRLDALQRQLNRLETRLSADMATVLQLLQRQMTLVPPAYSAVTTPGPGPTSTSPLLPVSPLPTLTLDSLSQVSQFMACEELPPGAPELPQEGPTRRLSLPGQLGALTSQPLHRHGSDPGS
Assay: hERG channel inhibition, automated patch clamp (IonWorks HT, hERG-CHO)
Type: cell-based
Settings: CHO cells expressing hERG, 10 μM compound, 600 s incubation, read-out: hERG Channel Inhibition % (at 10 μM), vehicle-subtracted values
Reported inhibition at 600 s, 10 µM values follow for various compounds

// known answers, use as guide
SMILES STR	inhibition at 600 s, 10 µM
COc1cc(NC(=O)C(=O)c2c(C)n(Cc3ccc(F)cc3F)c3cc(F)c(OC)cc23)ccn1	< 25%
COc1ccc(Cn2c(C)c(C(=O)C(=O)Nc3ccnc(OC)c3)c3cc(OC)cnc32)nc1	< 25%
COc1cc(NC(=O)C(=O)c2c(C)n(Cc3ccc(Cl)cc3)c3cc(F)c(OC)cc23)ccn1	25 to 50%
COc1cc(NC(=O)C(=O)c2c(C)n(Cc3ccc(Cl)cc3)c3cc(OC)c(Cl)cc23)ccn1	< 25%

Req: Give its inhibition at 600 s, 10 µM value. Item: COc1ccc(Cn2c(C)c(C(=O)C(=O)Nc3ccnc(OC)c3)c3cc(OC)c(Cl)cc32)nc1
Resp: < 25%

###

Biological target: FAAH (Homo sapiens, UniProt O00519)
Construct: Reactions were initiated by adding 12.5 μg of brain microsome; tissue ABS, Inc; host or cells: human brain cerebral cortex, membrane/microsome fraction pooled from 3 donors
Sequence (O00519 1-579): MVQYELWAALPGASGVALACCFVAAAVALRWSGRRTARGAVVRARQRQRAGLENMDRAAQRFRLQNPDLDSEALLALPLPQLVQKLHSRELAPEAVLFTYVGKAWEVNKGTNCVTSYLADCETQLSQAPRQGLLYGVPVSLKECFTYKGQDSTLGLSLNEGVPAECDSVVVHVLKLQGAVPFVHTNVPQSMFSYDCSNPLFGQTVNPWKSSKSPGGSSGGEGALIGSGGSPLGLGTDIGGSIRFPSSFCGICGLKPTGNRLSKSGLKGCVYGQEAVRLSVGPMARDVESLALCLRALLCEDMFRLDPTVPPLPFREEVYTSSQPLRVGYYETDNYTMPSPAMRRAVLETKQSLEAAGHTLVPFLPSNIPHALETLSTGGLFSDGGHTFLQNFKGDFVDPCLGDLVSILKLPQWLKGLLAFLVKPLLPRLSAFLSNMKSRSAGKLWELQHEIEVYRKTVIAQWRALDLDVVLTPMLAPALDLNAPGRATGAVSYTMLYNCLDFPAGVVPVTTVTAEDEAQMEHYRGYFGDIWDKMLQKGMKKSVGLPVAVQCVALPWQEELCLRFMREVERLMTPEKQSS
Experiment: FAAH inhibition, human brain membrane homogenate assay
Type: biochemical
Conditions: human brain homogenate; average activity; read-out: Human brain Extract FAAH IC50
REPORTED ENDPOINT: IC50

Before answering, review these 5 worked examples.
SMILES STR	IC50
COc1cc(NC(=O)C(=O)c2c(C)n(Cc3ccc(Cl)cc3)c3cnccc23)ccn1	100 to 1000 nM
COc1ccc2c(c1)c(C(=O)C(=O)Nc1ccnc(OC)c1Cl)c(C)n2Cc1ccc(Cl)cc1	> 10000 nM
COc1cc(NC(=O)C(=O)c2c(C)n(Cc3ccc(Cl)cc3)c3ccc(COC(C)=O)cc23)ccn1	< 100 nM
COc1cc(NC(=O)C(=O)c2c(C)n(Cc3ccc(Cl)cc3)c3cc(F)c(C)cc23)ccn1	< 100 nM
COc1ccc2c(C(=O)C(=O)Nc3ccnc(OC)c3)c(C)n(Cc3ccc(Cl)cc3)c2c1	< 100 nM

Req: Consider the compound COc1cc(NC(=O)C(=O)c2c(C)n(Cc3ccc(Cl)cc3)c3ccc(OC(F)(F)F)cc23)ccn1 and give its measured IC50.
Resp: < 100 nM

###

Target: hERG channel (Homo sapiens, UniProt Q12809)
Construct: expressed in transfected cells; host or cells: CHO (hERG-CHO), under Geneticin selection
Assay: hERG channel inhibition, automated patch clamp (IonWorks HT, hERG-CHO)
Format: cell-based
Details: CHO cells expressing hERG, 10 μM compound, 600 s incubation, read-out: hERG Channel Inhibition % (at 10 μM), vehicle-subtracted values
REPORTED ENDPOINT: inhibition at 600 s, 10 µM

SMILES STR	inhibition at 600 s, 10 µM
COc1ccc2c(c1)c(C(=O)C(=O)Nc1ccnc(OC)c1)c(C)n2Cc1ccncc1	< 25%

Req: Fill in: inhibition at 600 s, 10 µM of COc1cc(NC(=O)C(=O)c2c(C)n(Cc3ccc(Cl)cc3)c3ccc(OC(F)(F)F)cc23)ccn1 is ___
Resp: 50 to 75%

Req: Recorded inhibition at 600 s, 10 µM for COc1cc(NC(=O)C(=O)c2c(C)n(Cc3ccc(Cl)cc3)c3cc(Cl)c(C)cc23)ccn1 , please?
Resp: < 25%

###

Target: FAAH (Homo sapiens)
Construct: Reactions were initiated by adding 12.5 μg of brain microsome; tissue ABS, Inc; host or cells: human brain cerebral cortex, membrane/microsome fraction pooled from 3 donors
Test: FAAH inhibition, human brain membrane homogenate assay
Format: biochemical
Conditions: human brain homogenate; average activity; read-out: Human brain Extract FAAH IC50
REPORTED ENDPOINT: IC50

Completed entries (count: 5):
SMILES STR	MEASURED TARGET	REPORTED ENDPOINT	REPORTED
COc1ccc2c(c1)c(C(=O)C(=O)Nc1ccnc(OC)c1)c(C)n2Cc1ncc(Cl)cc1F	FAAH (Homo sapiens)	IC50	< 100 nM
COc1cc(NC(=O)C(=O)c2c(C)n(Cc3ccc(Cl)cc3F)c3cc(F)c(OC)cc23)ccn1	FAAH (Homo sapiens)	IC50	< 100 nM
COc1cc(NC(=O)C(=O)c2c(C)n(Cc3ccc(Cl)cn3)c3ccc(N)cc23)ccn1	FAAH (Homo sapiens)	IC50	100 to 1000 nM
COc1cc(NC(=O)C(=O)c2c(C)n(Cc3ccc(Cl)cn3)c3ccc(N(C)C)cc23)ccn1	FAAH (Homo sapiens)	IC50	< 100 nM
COc1cc(NC(=O)C(=O)c2c(C)n(Cc3ccc(Cl)cc3)c3ncc(C)cc23)ccn1	FAAH (Homo sapiens)	IC50	< 100 nM

Req: For COc1ccc(Cn2c(C)c(C(=O)C(=O)Nc3ccnc(OC)c3)c3cc(OC)ccc32)nc1 , what is its reported IC50?
Resp: 100 to 1000 nM

Req: May I ask what IC50 has been recorded for COc1cc(NC(=O)C(=O)c2c(C)n(Cc3ccc(Cl)cc3)c3ccncc23)ccn1 ?
Resp: < 100 nM

###

Target: FAAH (Rattus norvegicus)
Construct: For the assay of FAAH activity in rat brain membrane (RBM) homogenates; tissue Charles River (animals); host or cells: rat whole brain, membrane fraction
Sequence (P97612 whole entry): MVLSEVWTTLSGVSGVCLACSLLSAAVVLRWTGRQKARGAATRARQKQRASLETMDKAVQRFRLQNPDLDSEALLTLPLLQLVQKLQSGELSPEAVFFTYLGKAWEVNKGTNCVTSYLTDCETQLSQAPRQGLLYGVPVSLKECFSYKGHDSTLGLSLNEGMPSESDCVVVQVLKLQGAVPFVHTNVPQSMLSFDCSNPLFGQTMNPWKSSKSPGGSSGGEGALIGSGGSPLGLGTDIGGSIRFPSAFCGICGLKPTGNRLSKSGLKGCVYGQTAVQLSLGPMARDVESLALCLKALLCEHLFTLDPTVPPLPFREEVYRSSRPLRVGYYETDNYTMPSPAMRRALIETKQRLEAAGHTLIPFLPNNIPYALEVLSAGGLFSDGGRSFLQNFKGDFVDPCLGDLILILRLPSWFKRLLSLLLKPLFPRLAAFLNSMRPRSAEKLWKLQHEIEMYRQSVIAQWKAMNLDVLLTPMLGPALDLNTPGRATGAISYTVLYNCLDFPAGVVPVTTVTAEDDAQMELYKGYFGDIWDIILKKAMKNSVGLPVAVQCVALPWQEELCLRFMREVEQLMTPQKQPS
Assay: FAAH inhibition, rat brain membrane homogenate assay
Type: biochemical
Conditions: rat brain homogenate; average activity; read-out: Rat Brain Extract FAAH IC50
pIC50: −log10 of the molar value.
REPORTED ENDPOINT: pIC50

Below: 8 molecules and their reported pIC50.
SMILES STR	MEASURED TARGET	pIC50
COc1cc(NC(=O)C(=O)c2c(C)n(Cc3ccc(Cl)cc3)c3ccc(C(=O)O)cc23)ccn1	FAAH (Rattus norvegicus)	5.00 to 6.00
COc1cc(NC(=O)C(=O)c2c(C)n(Cc3ccc(Cl)cc3)c3cc(Cl)c(OC)cc23)ccn1	FAAH (Rattus norvegicus)	> 7.00
COc1cc(NC(=O)C(=O)c2c(C)n(Cc3ccc(Cl)cc3)c3cc(F)c(C)cc23)ccn1	FAAH (Rattus norvegicus)	> 7.00
COc1cc(NC(=O)C(=O)c2c(C)n(Cc3ccc(Cl)cn3)c3cc(F)c(OC)cc23)ccn1	FAAH (Rattus norvegicus)	> 7.00
COc1ccc2c(c1)c(C(=O)C(=O)Nc1ccnc(OC)n1)c(C)n2Cc1ccc(Cl)cc1	FAAH (Rattus norvegicus)	> 7.00
COc1cc(NC(=O)C(=O)c2c(C)n(Cc3ccc(F)cc3F)c3cc(F)c(OC)cc23)ccn1	FAAH (Rattus norvegicus)	> 7.00
COc1cc(NC(=O)C(=O)c2c(C)n(Cc3ccc(Cl)cc3)c3cnccc23)ccn1	FAAH (Rattus norvegicus)	6.00 to 7.00
COc1ccc2c(c1)c(C(=O)C(=O)Nc1ccnc(OC)c1)c(C)n2Cc1ccccn1	FAAH (Rattus norvegicus)	> 7.00

Now let's try a different one.
Req: Requested read-out: pIC50. Entry: COc1cnc2c(c1)c(C(=O)C(=O)Nc1ccnc(OC)c1)c(C)n2Cc1ccc(Cl)cc1
Resp: > 7.00

###

Target: FAAH (Homo sapiens)
Construct: Reactions were initiated by adding 12.5 μg of brain microsome; tissue ABS, Inc; host or cells: human brain cerebral cortex, membrane/microsome fraction pooled from 3 donors
Assay: FAAH inhibition, human brain membrane homogenate assay
Type: biochemical
Conditions: human brain homogenate; average activity; read-out: Human brain Extract FAAH IC50
REPORTED ENDPOINT: IC50

Worked examples, 3 compounds total:
SMILES STR	REPORTED ENDPOINT	REPORTED
COc1cc(NC(=O)C(=O)c2c(C)n(Cc3ccc(Cl)cc3)c3ccc(C(=O)N(C)C)cc23)ccn1	IC50	100 to 1000 nM
COc1ccc(Cn2c(C)c(C(=O)C(=O)Nc3ccnc(OC)c3)c3cc(OC)c(F)cc32)nc1	IC50	< 100 nM
COc1cc(NC(=O)C(=O)c2c(C)n(Cc3ccc(Cl)cn3)c3cc(C)c(OC)cc23)ccn1	IC50	< 100 nM

Req: Look up IC50: COc1cc(NC(=O)C(=O)c2c(C)n(Cc3ccc(Cl)cc3)c3ccc(CO)cc23)ccn1
Resp: < 100 nM

Req: Which IC50 reading was recorded for the compound COc1cc(NC(=O)C(=O)c2c(C)n(Cc3ccc(Cl)cc3)c3ccc(N)c(Cl)c23)ccn1 ?
Resp: 100 to 1000 nM

Req: Give its IC50 value. Item: COc1ccc2c(c1)c(C(=O)C(=O)Nc1ccnc(OC)c1)c(C)n2Cc1ccccn1
Resp: 100 to 1000 nM

Req: Reported IC50, compound COc1cc(NC(=O)C(=O)c2c(C)n(Cc3ncc(Cl)cc3F)c3cc(F)c(OC)cc23)ccn1 : ____
Resp: < 100 nM

Req: Which value of IC50 has been reported for COc1cc(NC(=O)C(=O)c2c(C)n(Cc3ccc(Cl)cc3)c3cc(OC)c(OC)cc23)ccn1 in the records?
Resp: < 100 nM

Req: # IC50 lookup, item COc1cc(NC(=O)C(=O)c2c(C)n(Cc3ccc(Cl)cc3)c3cc(Cl)c(C)cc23)ccn1
Resp: < 100 nM

Req: Dear colleague, I am looking for the recorded IC50 of the following compound: COc1cc(NC(=O)C(=O)c2c(C)n(Cc3ccc(Cl)cc3)c3cc(F)c(OC)cc23)ccn1
Resp: < 100 nM

Req: Entry COc1cc(NC(=O)C(=O)c2c(C)n(Cc3ccc(Cl)cc3)c3cc(OC)c(Cl)cc23)ccn1 has what IC50?
Resp: < 100 nM

Req: Consider the compound shown here: COc1cnc2c(c1)c(C(=O)C(=O)Nc1ccnc(OC)c1)c(C)n2Cc1ncc(Cl)cc1F What is its recorded IC50?
Resp: < 100 nM

Req: Tell me the measured IC50 of COc1cc(NC(=O)C(=O)c2c(C)n(Cc3ccc(Cl)cc3)c3ccc(OC)c(F)c23)ccn1 , please.
Resp: < 100 nM

Req: # query: IC50 of entry COc1cc(NC(=O)C(=O)c2c(C)n(Cc3ccc(Cl)cc3)c3c(OC)cccc23)ccn1
Resp: 100 to 1000 nM
